# Tested on: K-562 leukemia
# assay_notes: NCI-60 one-dose screen, 48 h
# assay_context: 10 µM unless noted
The panel holds about 83,000 compounds, 20% with a hit somewhere; the sample as a whole holds those more often. Activity calls are given as the source filed them. Rule for the calls: active = growth percent below 10; inactive = the rest.
Hi! Could you answer with just one of these? active, inactive

Reference set (5 entries):
| compound | answer_label |
| --- | --- |
| COc1ccc(NC(=O)c2sc3nc(-c4cnccn4)cc(-c4cccs4)c3c2N)cc1 | inactive |
| Cc1nc(-c2cc3ccccc3oc2=O)ccc1C(=O)/C=C/c1ccc(Cl)c(Cl)c1 | inactive |
| Nc1c(C(=O)c2ccc(Br)cc2)oc2nc(-c3cnccn3)cc(-c3cccs3)c12 | inactive |
| COC(=O)C1CCCN(S(=O)(=O)/N=C2\NC(=O)NC2=C(Cl)Cl)C1 (stereo not drawn) | inactive |
| Cn1c(SCC(=O)c2cccs2)nc2ccccc2c1=O | inactive |

Prompt line: Record lookup: outcome of this test for CC(=O)Oc1ccccc1C(=O)Nc1cc(C(C)C)ccc1C ?
Response line: active

====

# System: IGROV1 ovarian
# assay_notes: NCI-60 one-dose screen, 48 h (100 = growth as untreated, 0 = no growth, -100 = all killed)
# assay_context: 10 µM unless noted
About 83,000 compounds went through this panel and 20% of them were active in at least one assay; those are over-represented in the sample as a whole.
outcome_measure: growth (%)
Give bare numbers, in %.

A selection of reference data follows.
| compound | growth, % |
| --- | --- |
| Cc1cccc2sc(/N=C(\N)C(Br)Br)nc12 | -65.7 |
| COc1cccc(-c2nn(-c3ccccc3)cc2-c2ccnc(N3CCN(C(=O)Nc4ccc(F)cc4)CC3)c2)c1 | 79.1 |
| NS(=O)(=O)c1ccc(Nc2nc(Nc3ccccc3)nc(-n3nc(-c4ccccc4)cc3-c3ccccc3)n2)cc1 | 25.6 |
| Cc1cc(C(=O)Nc2sc3c(c2C(N)=O)CCC(=O)C3)ccc1OCCN1CCCCC1 | 91 |
| Oc1c(Cl)cc(Cl)c2ccc(CN3CCCCC3)nc12 | 33.9 |
| O=C(N/N=C/c1ccc[nH]1)c1[nH]c2ccc(Br)cc2c1-c1ccccc1 | 8.52 |

Hey, quick one: what's growth for each of these?
1. CCC/C=C/C=C/C(=O)N[C@@H](Cc1cc(F)cc(F)c1)C(=O)N[C@@H]1C(=O)N2CCC[C@H]2C(=O)N2CCCC[C@H]2C(=O)N[C@@H](C)C(=O)N2C[C@H](C)C[C@H]2C(=O)O[C@H]1C
2. CC(C)(C)Nc1nc2c(OCCc3ccccc3)cccn2c1-c1ccccc1Cl
3. Cc1ccc2ccc3ccc(C)nc3c2n1.Cc1ccc2ccc3ccc(C)nc3c2n1.Oc1c(Cl)cc(Cl)c2ccc(CN3CCCCC3)nc12.[Ru]
4. CCN1CCN(/C(=N\c2sc(-c3ccccc3)nc2-c2ccccc2)c2ccccc2)CC1
5. COc1ccc(NC2=CC(=O)C(C)=C(C)C2=O)cc1
6. CCN1C(=S)N(c2ccccc2)C2NC(=O)N(/N=C/C=C/c3ccccc3OC)C21 (centres undefined)

Response line:
40.8
5.74
-58.4
92.9
89.3
92.1

====

# Test system: NCI-H460 lung
# assay_notes: NCI-60 one-dose screen, 48 h
# assay_context: 10 µM unless noted
# Description: Growth inhibition of the NCI-H460 human Non-Small Cell Lung tumor cell line is measured as a screen for anti-cancer activity. Cells are grown in 96 well plates and exposed to the test compound for 48 hours. Compounds are tested at a single concentration, which is 10^-5 M for most compounds. The reported endpoint is percent growth (GI% or GIPRCNT), where numbers from 0 - 100% represent growth inhibition, and numbers from -100% - 0 represent cell death. […]
Compounds without any hit were thinned out: in the full panel of roughly 83,000, 20% have a hit. Activity calls are given as the source filed them. Rule for the calls: active = growth percent below 10; inactive = the rest.
Respond with a class label; see TRUE = active, FALSE = inactive

Use these answered entries as a reference point.
| record_smiles | answer_label |
| --- | --- |
| N#Cc1ccc(/C=N/NC(=O)c2[nH]c3ccc(Br)cc3c2-c2ccccc2)s1 | TRUE |
| C=CCn1c(SCC(=O)c2ccccc2)nnc1-c1c[nH]c2ccccc12 | FALSE |

Prompt line: // param item: CNC(=O)c1cc(-c2ccc(NC(=O)Nc3ccc(N4CCOCC4)c(C(F)(F)F)c3)cc2)nc2cccnc12 ; yields the recorded call
Response line: FALSE

Prompt line: Record request — test call for CN(C)S(=O)(=O)c1oc(-c2ccccc2)nc1C#N
Response line: FALSE

Prompt line: Kindly provide the recorded test outcome for the following molecule: COc1cccc(COc2ccc(/C=C3/C(=O)Nc4cc(Cl)ccc43)cc2)c1
Response line: FALSE
